- TARGET OF ASSAY: nuclease P1 (Penicillium citrinum)
- Sequence (P24289 1-270): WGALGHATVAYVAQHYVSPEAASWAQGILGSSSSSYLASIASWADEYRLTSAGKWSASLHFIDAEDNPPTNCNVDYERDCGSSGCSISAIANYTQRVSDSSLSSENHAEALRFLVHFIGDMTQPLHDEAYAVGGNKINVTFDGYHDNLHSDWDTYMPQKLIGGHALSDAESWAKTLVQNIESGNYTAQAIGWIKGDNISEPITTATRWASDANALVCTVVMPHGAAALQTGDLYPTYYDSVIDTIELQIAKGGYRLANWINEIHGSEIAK
- TEST DESCRIPTION: Endonuclease (nuclease P1) turnover rate for hydrolysis of modified dinucleoside monophosphates
- Type: biochemical
- PROTOCOL CONDITIONS: 6 nmol substrate in 100 μl 60 mM sodium acetate buffer pH 5.3 with zinc chloride, 50 ng nuclease P1, 37° C., HPLC analysis
- Description: The endonuclease turnover rate was measured in terms of the number of substrate molecules hydrolyzed per minute per molecule of enzyme. […] Concentrations of the modified dinucleoside monophosphates were determined spectrophotometrically at 260 nm. […] The products of digestion were analyzed by injecting the digest onto a C-18 reverse phase HPLC column, with elution using a 5%-53% linear gradient of CH3 CN/0.1M ammonium acetate buffer, pH 7.0 at a 1.0 ml/minute flow rate. […]
EXPERIMENTAL ENDPOINT: endonuclease turnover rate R

// sample Nc1ncnc2c1ncn2[C@H]1C[C@H](O)[C@@H](COP(=O)(O)O[C@H]2C[C@H](NC=O)O[C@@H]2CO)O1 [d(T*pA) formamido remnant] , its endonuclease turnover rate R was no hydrolysis detected

GET /value?item= Nc1nc2c(ncn2[C@H]2C[C@H](O)[C@@H](COP(=O)(O)O[C@H]3C[C@H](NC=O)O[C@@H]3CO)O2)c(=O)[nH]1 [d(T*pG) formamido remnant] &field=endonuclease turnover rate R returns no hydrolysis detected

The compound listed as Cc1cn([C@H]2C[C@H](O)[C@@H](COP(=O)(O)O[C@H]3C[C@H](NC=O)O[C@@H]3CO)O2)c(=O)[nH]c1=O [d(T*pT) formamido remnant] shows endonuclease turnover rate R equal to no hydrolysis detected

Looking up Nc1ccn([C@H]2C[C@H](O)[C@@H](COP(=O)(O)O[C@H]3C[C@H](NC=O)O[C@@H]3CO)O2)c(=O)n1 [d(T*pC) formamido remnant] , I found its endonuclease turnover rate R recorded as no hydrolysis detected
